test: Antidegenerative activity against human cartilage explant assessed as inhibition of IL1-induced of GAG release at 10 uM for 1 day before IL-1 treatment measured after 6 days by colorimetric analysis relative to control; format: functional; settings: Cartilage tissue
Label 1 when inhibition at 10 µM is at or above 30%; anything below gets -1.

Example entries begin here.
Molecule | Assigned class
N[C@H]1C(O)O[C@H](CO)[C@@H](O)[C@@H]1O (some centres not stated) | -1
CCC(C)OC(=O)[C@@H]1CCCN1P(=O)(Oc1ccc(OC)cc1)O[C@H]1[C@H](O)[C@@H](CO)O[C@H](O)[C@@H]1NC(C)=O (some centres not stated) | -1
CCOC(=O)[C@@H]1CCCN1P(=O)(Oc1ccc(OC)cc1)O[C@H]1[C@H](O)[C@@H](NC(C)=O)[C@H](O)O[C@@H]1CO (some centres not stated) | -1

Inquiry: Textbook exercise: given the entry COc1ccc(OP(=O)(O[C@H]2[C@H](O)[C@@H](CO)O[C@H](O)[C@@H]2NC(C)=O)N2CCC[C@H]2C(=O)OCc2ccccc2)cc1 (some centres not stated) , state whether its inhibition at 10 µM is greater than or equal to 30%.
Reply text: -1

Inquiry: Textbook exercise: given the entry COc1ccc(OP(=O)(O[C@H]2[C@H](O)[C@@H](CO)O[C@H](O)[C@@H]2NC(C)=O)N2CCC[C@H]2C(=O)OC(C)C)cc1 (some centres not stated) , state whether its inhibition at 10 µM is greater than or equal to 30%.
Reply text: -1

Inquiry: Textbook exercise: given the entry CCOC(=O)[C@@H]1CCCN1P(=O)(Oc1ccc(OC)cc1)O[C@H]1[C@H](O)[C@@H](CO)O[C@H](O)[C@@H]1NC(C)=O (some centres not stated) , state whether its inhibition at 10 µM is greater than or equal to 30%.
Reply text: 1

Where do these numbers come from? They come from ChEMBL document CHEMBL2069258.
